Hello, the source for this data is the supplement of paper PMC10567573, in case you need it.

B1: CROP (parent)
chain: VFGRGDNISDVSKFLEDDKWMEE

Variants of: B1
test protocol: protein stability index of a GFP-peptide fusion (GPS, HEK-293T) (PSI 1-6); higher = more stable;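 also: lentivirally expressed fusions sorted by FACS into six bins by GFP to DsRed ratio, PSI derived from sequencing read proportions per bin multiplied by bin number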
assay setup: c terminus: native
quantity kind: protein stability index
// no unit string in output, number only

Data request: Quickly give me recorded protein stability index for `E22D`
Data returned: 4.23

Data request: Quickly give me recorded protein stability index for `K13N`
Data returned: 1.91

Data request: Quickly give me recorded protein stability index for `S9L`
Data returned: 3.1

Data request: Quickly give me recorded protein stability index for `V1Q`
Data returned: 3

Data request: Quickly give me recorded protein stability index for `V11E`
Data returned: 2.39

Data request: Quickly give me recorded protein stability index for `I8P`
Data returned: 2.03

Data request: Quickly give me recorded protein stability index for `D18L`
Data returned: 1.97

Data request: Quickly give me recorded protein stability index for `F14M`
Data returned: 2.42

Data request: Quickly give me recorded protein stability index for `S9F`
Data returned: 1.63

Data request: Quickly give me recorded protein stability index for `R4Q`
Data returned: 1.99

Data request: Quickly give me recorded protein stability index for `V11F`
Data returned: 2.15

Data request: Quickly give me recorded protein stability index for `W20R`
Data returned: 3.94

Data request: Quickly give me recorded protein stability index for `D18F`
Data returned: 1.66

Data request: Quickly give me recorded protein stability index for `D10H`
Data returned: 3.06

Data request: Quickly give me recorded protein stability index for `D17K`
Data returned: 2.83

Data request: Quickly give me recorded protein stability index for `V11H`
Data returned: 2.43

Data request: Quickly give me recorded protein stability index for `K19L`
Data returned: 1.89

Data request: Quickly give me recorded protein stability index for `E22A`
Data returned: 4.23

Data request: Quickly give me recorded protein stability index for `W20N`
Data returned: 4.72

Data request: Quickly give me recorded protein stability index for `M21H`
Data returned: 2.25

Data request: Quickly give me recorded protein stability index for `S12K`
Data returned: 2.2

Data request: Quickly give me recorded protein stability index for `G3D`
Data returned: 2.21

Data request: Quickly give me recorded protein stability index for `E22T`
Data returned: 4.94

Data request: Quickly give me recorded protein stability index for `K13C`
Data returned: 1.74

Data request: Quickly give me recorded protein stability index for `L15I`
Data returned: 1.93

Data request: Quickly give me recorded protein stability index for `S12F`
Data returned: 2.33

Data request: Quickly give me recorded protein stability index for `E22L`
Data returned: 4.07

Data request: Quickly give me recorded protein stability index for `K19T`
Data returned: 1.92

Data request: Quickly give me recorded protein stability index for `K19Y`
Data returned: 2.22

Data request: Quickly give me recorded protein stability index for `E22P`
Data returned: 4.33

Data request: Quickly give me recorded protein stability index for `F2A`
Data returned: 2.88

Data request: Quickly give me recorded protein stability index for `F14N`
Data returned: 3.54

Data request: Quickly give me recorded protein stability index for `W20L`
Data returned: 2.54

Data request: Quickly give me recorded protein stability index for `S12T`
Data returned: 2.67

Data request: Quickly give me recorded protein stability index for `D6H`
Data returned: 1.85

Data request: Quickly give me recorded protein stability index for `S9K`
Data returned: 1.62

Data request: Quickly give me recorded protein stability index for `K19V`
Data returned: 2.27

Data request: Quickly give me recorded protein stability index for `K19G`
Data returned: 1.95

Data request: Quickly give me recorded protein stability index for `S12E`
Data returned: 2.56

Data request: Quickly give me recorded protein stability index for `R4E`
Data returned: 2.42

Data request: Quickly give me recorded protein stability index for `K19N`
Data returned: 2.35

Data request: Quickly give me recorded protein stability index for `E16I`
Data returned: 1.65

Data request: Quickly give me recorded protein stability index for `D6E`
Data returned: 2.42

Data request: Quickly give me recorded protein stability index for `E23C`
Data returned: 4.1

Data request: Quickly give me recorded protein stability index for `N7L`
Data returned: 1.42

Data request: Quickly give me recorded protein stability index for `D18C`
Data returned: 1.47

Data request: Quickly give me recorded protein stability index for `K13P`
Data returned: 1.14

Data request: Quickly give me recorded protein stability index for `I8E`
Data returned: 2.9

Data request: Quickly give me recorded protein stability index for `D17A`
Data returned: 2.29

Data request: Quickly give me recorded protein stability index for `F2G`
Data returned: 2.79

Data request: Quickly give me recorded protein stability index for `F2P`
Data returned: 2.66

Data request: Quickly give me recorded protein stability index for `E22N`
Data returned: 4.31

Data request: Quickly give me recorded protein stability index for `D18A`
Data returned: 1.3

Data request: Quickly give me recorded protein stability index for `R4C`
Data returned: 2.66

Data request: Quickly give me recorded protein stability index for `E23V`
Data returned: 4.08

Data request: Quickly give me recorded protein stability index for `L15C`
Data returned: 2.64

Data request: Quickly give me recorded protein stability index for `N7G`
Data returned: 1.77

Data request: Quickly give me recorded protein stability index for `G3A`
Data returned: 2.83

Data request: Quickly give me recorded protein stability index for `F2V`
Data returned: 2.64

Data request: Quickly give me recorded protein stability index for `V1C`
Data returned: 1.97

Data request: Quickly give me recorded protein stability index for `V11I`
Data returned: 2.39

Data request: Quickly give me recorded protein stability index for `E23Y`
Data returned: 3.76

Data request: Quickly give me recorded protein stability index for `V1K`
Data returned: 2.73

Data request: Quickly give me recorded protein stability index for `E16C`
Data returned: 1.46

Data request: Quickly give me recorded protein stability index for `E22I`
Data returned: 3.81

Data request: Quickly give me recorded protein stability index for `V1S`
Data returned: 2.11

Data request: Quickly give me recorded protein stability index for `D6P`
Data returned: 2.32

Data request: Quickly give me recorded protein stability index for `R4H`
Data returned: 2.19

Data request: Quickly give me recorded protein stability index for `W20M`
Data returned: 3.12

Data request: Quickly give me recorded protein stability index for `D10S`
Data returned: 2.09

Data request: Quickly give me recorded protein stability index for `S9Y`
Data returned: 2.3

Data request: Quickly give me recorded protein stability index for `M21F`
Data returned: 2.28

Data request: Quickly give me recorded protein stability index for `F14S`
Data returned: 4.16

Data request: Quickly give me recorded protein stability index for `S9E`
Data returned: 2.44

Data request: Quickly give me recorded protein stability index for `E16T`
Data returned: 1.66

Data request: Quickly give me recorded protein stability index for `D10A`
Data returned: 1.99

Data request: Quickly give me recorded protein stability index for `W20K`
Data returned: 3.78

Data request: Quickly give me recorded protein stability index for `F2H`
Data returned: 3.4

Data request: Quickly give me recorded protein stability index for `E22K`
Data returned: 4.73

Data request: Quickly give me recorded protein stability index for `F14P`
Data returned: 4.07

Data request: Quickly give me recorded protein stability index for `F2C`
Data returned: 3.7

Data request: Quickly give me recorded protein stability index for `G3F`
Data returned: 1.44
